meta.source: patent US11840686B2

percent inhibition of PKK mRNA, 1.00 μM values for the substances below.
Tested on: human PKK mRNA
Experiment: Dose-dependent antisense inhibition of human PKK in HepaRG cells, 0.11-3.00 uM (Example 6)
Format: cell-based
Details: electroporation, 1.00 μM, approx. 16 hours, relative to untreated control cells
Strand notation (5' to 3'): a small letter for the sugar, then the base; units joined by * are phosphorothioate-linked, units joined directly phosphodiester-linked; [ ] holds rarer units or linkages, { } end groups; capitals alone tell only the bases. e = 2'-O-(2-methoxyethyl) (MOE); k = constrained ethyl (cEt); [5mC] = 5-methylcytosine; d = 2'-deoxy (DNA)
API: value field is a number in %; no unit string.

- substance: "547824 (e[5mC]*eG*kA*dT*dG*dT*dA*d[5mC]*dT*dT*dT*dT*dG*kG*k[5mC]*eA; antisense) [compound 547824]"
  quantityName: "percent inhibition of PKK mRNA, 1.00 μM"
  unitInfo: "%"
  assayValue: 78

# return recorded percent inhibition of PKK mRNA, 1.00 μM for entry 548147 (e[5mC]*eG*kT*d[5mC]*d[5mC]*dT*dT*dA*dG*dG*dA*dT*dG*k[5mC]*kA*eA; antisense) [compound 548147]
80

Please report the measured percent inhibition of PKK mRNA, 1.00 μM for 548338 (antisense eA*eT*kG*dA*dA*dA*d[5mC]*dT*dG*dT*dG*dG*d[5mC]*kT*k[5mC]*eG) [compound 548338]
79
